protocol: Acute toxicity test (intravenous injection) using a mouse
experimental-context: in vivo
Below is a list of entries, each paired with its recorded LD50 value.
The reply should contain only the number, in mg/kg.

compound	LD50 / mg/kg
COc1ccc(CCN(C)CCCNC(=O)C/C=C/c2ccc(-n3cncn3)cc2)cc1OC [Compound M]	120

Now examine the next entry.
Inquiry: Would you mind telling me what LD50 value was observed for COc1ccc(CCN(C)CCCNC(=O)C/C=C/c2ccc(-n3cnc(C)c3)cc2)cc1OC [Compound L] ?
Reply text: 92
